The origin of these recorded values is ChEMBL document CHEMBL1146363.

Test system: Human immunodeficiency virus 1
Test: Antiviral activity against HIV1 LAI with RT K103N and Y181C mutation in MT4 cells by EGFP based replication assay
Type: functional, organism-based
Settings: Human immunodeficiency virus 1, LAI
EC50 for assorted compounds
Field format: number, assumed nM, no unit text.

Check out these entries, answers already filled in.
{"columns": ["COMPOUND", "OBSERVED"],
 "data": [
  ["COc1cc(/C=C/C#N)cc(C)c1Nc1ccnc(Nc2ccc(C#N)cc2)n1", 4.3],
  ["CCc1cc(/C=C/C#N)cc(C)c1Nc1ccnc(Nc2ccc(C#N)cc2)n1", 5.3]
]}

// next item, EC50 requested
(Q) Which EC50 value belongs to "CC(C)Nc1cccnc1N1CCN(C(=O)c2cc3cc(NS(C)(=O)=O)ccc3[nH]2)CC1" ?
(A) 38400

---

System: Human immunodeficiency virus 1
Experiment: Antiviral activity against HIV1 LAI with RT F227C and V106A mutation in MT4 cells by EGFP based replication assay
Type: functional, organism-based
Conditions: Human immunodeficiency virus 1, LAI
Threshold 0.9 nM. EC50 below it: rule met. EC50 at it or above: rule not met.

Here's what some known entries look like.
{"columns": ["COMPOUND", "ASSIGNED_CATEGORY"],
 "data": [
  ["Cc1cc(/C=C/C#N)ccc1Nc1ccnc(Nc2ccc(C#N)cc2)n1", "rule not met"],
  ["N#C/C=C/c1ccc(Nc2ccnc(Nc3ccc(C#N)cc3)n2)cc1", "rule not met"],
  ["Cc1ccnc2c1NC(=O)c1cccnc1N2C1CC1 [NEVIRAPINE]", "rule not met"],
  ["Cc1cc(/C=C/C#N)cc(C)c1Oc1ccnc(Nc2ccc(C#N)cc2)n1", "rule met"],
  ["CC(C)Nc1cccnc1N1CCN(C(=O)c2cc3cc(NS(C)(=O)=O)ccc3[nH]2)CC1 [DELAVIRDINE]", "rule not met"]
]}

Note: attention shifts to another entry.
(Q) Is EC50 of Cc1cc(/C=C/C#N)cc(C)c1Nc1ccnc(Nc2ccc(C#N)cc2)n1 [RILPIVIRINE] strictly below 0.9 nM?
(A) rule met

---

EC50 for assorted compounds
Tested on: Human immunodeficiency virus 1
Experiment: Antiviral activity against HIV1 LAI with RT K103N mutation in MT4 cells by EGFP based replication assay
Format: functional, organism-based
Settings: Human immunodeficiency virus 1, LAI
Field format: number, assumed nM, no unit text.

{"columns": ["COMPOUND", "EC50 (nM)"],
 "data": [
  ["Cc1ccnc2c1NC(=O)c1cccnc1N2C1CC1", 1980],
  ["Cc1cc(/C=C/C#N)cc(Cl)c1Nc1ccnc(Nc2ccc(C#N)cc2)n1", 0.1],
  ["CC(C)Nc1cccnc1N1CCN(C(=O)c2cc3cc(NS(C)(=O)=O)ccc3[nH]2)CC1", 10200]
]}

(Q) Which EC50 value belongs to "Cc1cc(/C=C/C#N)cc(C)c1Oc1ccnc(Nc2ccc(C#N)cc2)n1" ?
(A) 0.2

(Q) Which EC50 value belongs to "Cc1cc(/C=C/C#N)cc(C(C)C)c1Nc1ccnc(Nc2ccc(C#N)cc2)n1" ?
(A) 1.3

(Q) Which EC50 value belongs to "Cc1cc(/C=C\C#N)cc(C)c1Sc1ccnc(Nc2ccc(C#N)cc2)n1" ?
(A) 0.7

(Q) Which EC50 value belongs to "CCc1cc(/C=C/C#N)cc(C)c1Nc1ccnc(Nc2ccc(C#N)cc2)n1" ?
(A) 0.5

(Q) Which EC50 value belongs to "COc1cc(/C=C/C#N)cc(Cl)c1Nc1ccnc(Nc2ccc(C#N)cc2)n1" ?
(A) 0.3

(Q) Which EC50 value belongs to "Cc1cc(/C=C/C#N)cc(C)c1Nc1ccnc(Nc2ccc(C#N)cc2)n1" ?
(A) 0.1

(Q) Which EC50 value belongs to "N#C/C=C/c1ccc(Nc2ccnc(Nc3ccc(C#N)cc3)n2)cc1" ?
(A) 57.7

(Q) Which EC50 value belongs to O=C1Nc2ccc(Cl)cc2C(C#CC2CC2)(C(F)(F)F)O1 (single isomer, unassigned) ?
(A) 46.4

(Q) Which EC50 value belongs to "Cc1cc(/C=C/C#N)ccc1N(C)c1ccnc(Nc2ccc(C#N)cc2)n1" ?
(A) 0.7

(Q) Which EC50 value belongs to "Cc1cc(/C=C/C#N)ccc1Nc1ccnc(Nc2ccc(C#N)cc2)n1" ?
(A) 0.6

---

Test system: Human immunodeficiency virus 1
Test: Antiviral activity against HIV1 LAI with RT Y181C mutation in MT4 cells by EGFP based replication assay
Assay type: functional, organism-based
Details: Human immunodeficiency virus 1, LAI
PARAMETER: pEC50
By convention, pEC50 is the negative base-10 log of a molar concentration.

{"columns": ["COMPOUND", "OBSERVED"],
 "data": [
  ["O=C1Nc2ccc(Cl)cc2C(C#CC2CC2)(C(F)(F)F)O1 (single isomer, unassigned)", 8.41],
  ["Cc1cc(/C=C/C#N)ccc1Nc1ccnc(Nc2ccc(C#N)cc2)n1", 7.87],
  ["Cc1cc(/C=C\\C#N)cc(C)c1Sc1ccnc(Nc2ccc(C#N)cc2)n1", 8.24],
  ["Cc1cc(/C=C/C#N)cc(C)c1Oc1ccnc(Nc2ccc(C#N)cc2)n1", 8.49],
  ["Cc1cc(/C=C/C#N)ccc1N(C)c1ccnc(Nc2ccc(C#N)cc2)n1", 7.92]
]}

(Q) Provide the documented pEC50 with Human immunodeficiency virus 1 as the system for "CC(C)Nc1cccnc1N1CCN(C(=O)c2cc3cc(NS(C)(=O)=O)ccc3[nH]2)CC1"
(A) 5.04

(Q) Provide the documented pEC50 with Human immunodeficiency virus 1 as the system for "COc1cc(/C=C/C#N)cc(Cl)c1Nc1ccnc(Nc2ccc(C#N)cc2)n1"
(A) 9.00

---

remaining at 0.25 h for assorted molecules
Test: Metabolic stability in human liver microsomes after 15 mins
Format: ADME, Microsome
Details: read-out: Stability
Field format: number, assumed %, no unit text.

Check out these entries, answers already filled in.
{"columns": ["SMILES_STRING", "OBSERVED"],
 "data": [
  ["Cc1cc(/C=C/C#N)cc(C)c1Nc1ccnc(Nc2ccc(C#N)cc2)n1", 26],
  ["Cc1cc(/C=C/C#N)cc(Cl)c1Nc1ccnc(Nc2ccc(C#N)cc2)n1", 39]
]}

(Q) Which remaining at 0.25 h value belongs to "COc1cc(/C=C/C#N)cc(Cl)c1Nc1ccnc(Nc2ccc(C#N)cc2)n1" ?
(A) 26

---

Tested on: Human immunodeficiency virus 1
Assay: Antiviral activity against HIV1 LAI with RT K103N and Y181C mutation in MT4 cells by EGFP based replication assay
Assay type: functional, organism-based
Settings: Human immunodeficiency virus 1, LAI
pEC50: −log10 of the molar value.
Decision: pEC50 >= 7 yields yes (1), all other cases yield no (0).

Here's what some known entries look like.
{"columns": ["COMPOUND", "SUBJECT_OF_TEST", "ASSIGNED_CATEGORY"],
 "data": [
  ["N#C/C=C/c1ccc(Nc2ccnc(Nc3ccc(C#N)cc3)n2)cc1", "Human immunodeficiency virus 1", "no (0)"],
  ["O=C1Nc2ccc(Cl)cc2C(C#CC2CC2)(C(F)(F)F)O1 (single isomer, unassigned)", "Human immunodeficiency virus 1", "yes (1)"],
  ["Cc1cc(/C=C/C#N)cc(Cl)c1Nc1ccnc(Nc2ccc(C#N)cc2)n1", "Human immunodeficiency virus 1", "yes (1)"],
  ["Cc1cc(/C=C\\C#N)cc(C)c1Sc1ccnc(Nc2ccc(C#N)cc2)n1", "Human immunodeficiency virus 1", "yes (1)"]
]}

Note: attention shifts to another entry.
(Q) Form field: pEC50 at least 7? Entry: "Cc1ccnc2c1NC(=O)c1cccnc1N2C1CC1"
(A) no (0)

---

Tested on: Human immunodeficiency virus 1
Assay: Antiviral activity against HIV1 LAI with RT F227C and V106A mutation in MT4 cells by EGFP based replication assay
Type: functional, organism-based
Conditions: Human immunodeficiency virus 1, LAI
PARAMETER: EC50 (nM)
Field format: number, assumed nM, no unit text.

{"columns": ["COMPOUND", "UNIT_OF_MEASURE", "EC50"],
 "data": [
  ["CCc1cc(/C=C/C#N)cc(C)c1Nc1ccnc(Nc2ccc(C#N)cc2)n1", "nM", 0.9],
  ["O=C1Nc2ccc(Cl)cc2C(C#CC2CC2)(C(F)(F)F)O1 (single isomer, unassigned)", "nM", 4.1],
  ["Cc1cc(/C=C/C#N)ccc1N(C)c1ccnc(Nc2ccc(C#N)cc2)n1", "nM", 1.5],
  ["COc1cc(/C=C/C#N)cc(Cl)c1Nc1ccnc(Nc2ccc(C#N)cc2)n1", "nM", 0.3],
  ["COc1cc(/C=C/C#N)cc(C)c1Nc1ccnc(Nc2ccc(C#N)cc2)n1", "nM", 0.3]
]}

(Q) Which EC50 value belongs to "Cc1cc(/C=C\C#N)cc(C)c1Sc1ccnc(Nc2ccc(C#N)cc2)n1" ?
(A) 1.1

(Q) Which EC50 value belongs to "Cc1cc(/C=C/C#N)cc(C(C)C)c1Nc1ccnc(Nc2ccc(C#N)cc2)n1" ?
(A) 3.2

(Q) Which EC50 value belongs to "Cc1cc(/C=C/C#N)cc(Cl)c1Nc1ccnc(Nc2ccc(C#N)cc2)n1" ?
(A) 0.5
